- protocol.details: MTT cytotoxicity assay
- Assay type: cell-based
- condition.summary: human, HEK293 cells (method text: HEK293T), 24 h exposure
The molecules listed here are annotated with their IC50 at 24 h.
measurement.label: IC50 at 24 h (µM)

In [3]: df
Out[3]:
                           smiles_structure  qualifier  recorded_measurement
0  COc1ccc(/C=C/C(=O)OCCOc2cc(O)c3c(=O)cc(-c4ccc(O)c(O)c4)oc3c2)cc1          =                  3.94
1  O=C(/C=C/c1ccc(O)cc1)OCCOc1cc(O)c2c(=O)cc(-c3ccc(O)c(O)c3)oc2c1          =                  62.4
2  CN(C)c1ccc(/C=C/C(=O)OCCOc2cc(O)c3c(=O)cc(-c4ccc(O)c(O)c4)oc3c2)cc1          >                   100

Where do these numbers come from? They come from paper PMC6982702.
